The values you see were collected from ChEMBL document CHEMBL1201862.

- Tested on: SR
- test details: NCI tumour cell line growth inhibition, 48 h
Activity calls are given as the source filed them. Rule as the data show it: active = GI50 up to about 1.1 µM and inactive = higher.
property measured: GI50

Sample `COc1cc2c(cc1O)NC(=S)[C@@H]1CCCN1C2=O` — what was its GI50?
50.1 µM (inactive)

Sample [N-]=[N+]=NC(c1cn(C2CC(O)C(CO)O2)c(=O)[nH]c1=O)C(Cl)Br (stereo not given) — what was its GI50?
> 100 µM (inactive)

Sample `C=C1c2nc3ccccc3n2C=C(c2ccccc2)N1c1ccc(Cl)cc1` — what was its GI50?
64.7 µM (inactive)

Sample O=[N+]([O-])c1ccc(C2=Nc3ccccc3SC(c3ccccc3)C2)cc1 (stereo not given) — what was its GI50?
18.2 µM (inactive)

Sample `CC[C@]1(Cc2ccc(OC)c(OC)c2)CN(S(=O)(=O)c2ccc(C)cc2)C[C@@H]1OC(C)=O` — what was its GI50?
> 100 µM (inactive)

###

property measured: GI50 (µM)
# unit: µM | format: bare number

Give GI50 (HCT-15) of the following compound: C1COC2SC3=C(SC(=C4SC5=C(SCCS5)S4)S3)SC2O1 (centres undefined)
8.49

Give GI50 (HCT-15) of the following compound: COc1ccc(/C=C2\CCC(C)(CN(C)C)C2=O)cc1Br (centres undefined)
16.9

Give GI50 (HCT-15) of the following compound: `O=C(/C=C1\Nc2ccc([N+](=O)[O-])cc2N\C1=C/C(=O)c1ccc(F)cc1)c1ccc(F)cc1`
64.7

Give GI50 (HCT-15) of the following compound: `NS(=O)(=O)c1ccc(/N=N/c2ccc(O)c(O)c2)cc1`
3.18

Give GI50 (HCT-15) of the following compound: `CC1(C)CC[C@]2(C)CC[C@]3(C)C(=CC[C@@H]4[C@@]5(C)CCC(=O)C(C)(C)[C@@H]5[C@H](O)C[C@]43C)[C@@H]2C1`
18.6

###

Would you mind telling me the reported GI50 of each entry?
- Tested on: LOX IMVI
- test details: NCI tumour cell line growth inhibition, 48 h
Active and inactive are the calls of the source. Cut-off read from the data, not from the text of the source: active = GI50 up to about 1.1 µM and inactive = higher.

Sample `CCOC(=O)c1ccc(Nc2c3c(nc4ccccc24)CCCC3)cc1` — what was its GI50?
> 21.2 µM (inactive)

Sample `CCN(CC)CCOc1ccc(N2Cc3cc(OC)c(OC)cc3C2=O)cc1` — what was its GI50?
> 100 µM (inactive)

Sample `N#CC(C#N)=C1C(=O)NC(N)=C1C#N` — what was its GI50?
> 100 µM (inactive)

Sample `CCOc1ccc(NC(=O)C(=O)NO)cc1` — what was its GI50?
> 100 µM (inactive)

Sample `COc1ccccc1/C=C/c1cnccn1` — what was its GI50?
> 10 µM (inactive)

Sample `COC(=O)[C@@H](NC(=O)[C@H](N)Cc1ccc(N(CCCl)CCCl)cc1)C(C)C` — what was its GI50?
5.97 µM (inactive)

###

- System: 786-0
- test details: NCI tumour cell line growth inhibition, 48 h
Activity calls are given as the source filed them. Cut-off read from the data, not from the text of the source: active = GI50 up to about 1.1 µM and inactive = higher.
property measured: GI50

Sample C=CC(Br)(CBr)CCC(Br)C(C)(C)Cl (stereo not given) — what was its GI50?
2.35 µM (inactive)

Sample CCOC(=O)/C=C1/Oc2ccccc2C1(C)O (stereo not given) — what was its GI50?
> 100 µM (inactive)

Sample CCOC(=O)N1CCC(=O)C[C@@H]1C/C=C/P1(=O)O[C@H](c2ccccc2)C(C)N1C(C)C (stereo not given in full) — what was its GI50?
> 100 µM (inactive)

Sample `CCCCCCCC(=O)N/N=C/c1ccc(Sc2nccn2C)c([N+](=O)[O-])c1` — what was its GI50?
14.9 µM (inactive)

Sample C=C1CC(Cn2ccc(=O)[nH]c2=O)(c2ccc(OC)cc2)OC1=O (stereo not given) — what was its GI50?
11.7 µM (inactive)

Sample `COC(=O)[C@@H](NC(=O)[C@H](N)Cc1ccc(N(CCCl)CCCl)cc1)C(C)C` — what was its GI50?
8.65 µM (inactive)

Sample `O=C1C=Cc2ncccc2C1=O` — what was its GI50?
15.7 µM (inactive)

Sample CSc1ccc(NC(=O)C2c3[nH]c4ccccc4c3C3CCC(C(C)(C)C)CC3C2C(=O)O)cc1 (stereo not given) — what was its GI50?
17.5 µM (inactive)

Sample `CC1(C)CC[C@]2(C)CC[C@]3(C)C(=CC[C@@H]4[C@@]5(C)CCC(=O)C(C)(C)[C@@H]5[C@H](O)C[C@]43C)[C@@H]2C1` — what was its GI50?
15.5 µM (inactive)

Sample `NS(=O)(=O)c1ccc(/N=N/c2ccc(O)c(O)c2)cc1` — what was its GI50?
12.4 µM (inactive)

Sample `c1ccc(/C(=N/Nc2ccccn2)c2cccnn2)cc1` — what was its GI50?
1.38 µM (inactive)

Sample C=C1c2[nH]c3ccccc3c2CC(C(=O)O)N1C(O)c1ccc(S(=O)(=O)O)cc1 (stereo not given) — what was its GI50?
> 100 µM (inactive)

Sample `CCN1C(=O)C(=Cc2ccc(-c3ccccc3)cc2)C(=O)N(CC)C1=S` — what was its GI50?
> 100 µM (inactive)

Sample `O=C1C[C@@H]2CCCC[C@@H]2C12SCCS2` — what was its GI50?
> 100 µM (inactive)

Sample `CC(=O)O[C@H]1C(=O)[C@@]2(C)[C@H]([C@H](OC(=O)c3ccccc3)[C@]3(O)C[C@H](OC(=O)[C@H](O)[C@@H](NC(=O)c4ccccc4)c4ccc5ccccc5c4)C(C)=C1C3(C)C)[C@]1(OC(C)=O)CO[C@@H]1C[C@@H]2O` — what was its GI50?
0.153 µM (active)

Sample `CN1CCC(CN2c3ccccc3Sc3ccccc32)CC1` — what was its GI50?
14.3 µM (inactive)

Sample `O=C(O)Cn1ccc(=O)c2ccc([N+](=O)[O-])cc21` — what was its GI50?
> 100 µM (inactive)

Sample COc1cccc2c1C(=O)C1(O)CCCCC21 (stereo not given) — what was its GI50?
> 100 µM (inactive)

Sample CC(C)c1ccc2c(c1)CCC1C(C)(C)[C@@H](O)CC[C@]21C (stereo not given in full) — what was its GI50?
22.5 µM (inactive)

Sample `O=C1C(N2CCOCC2)=C(Cl)C(=O)c2ncccc21` — what was its GI50?
1.84 µM (inactive)

###

- System: Malme-3M
- test details: NCI tumour cell line growth inhibition, 48 h
The source made the active and inactive calls. Rule as the data show it: active = GI50 up to about 1.1 µM and inactive = higher.
property measured: GI50

Sample `O=C1C[C@@H]2CCCC[C@@H]2C12SCCS2` — what was its GI50?
> 100 µM (inactive)

Sample C/C(=N\O)C1CC(CC(=O)O)C1(C)C (stereo unspecified) — what was its GI50?
> 100 µM (inactive)

Sample `NC(=O)N1N=C2c3ccccc3SC[C@H]2[C@@H]1c1ccccc1` — what was its GI50?
26.9 µM (inactive)

Sample `O=C(O)Cn1ccc(=O)c2ccc([N+](=O)[O-])cc21` — what was its GI50?
> 100 µM (inactive)

Sample COC(=O)CCC(=O)N1CC1C (stereo unspecified) — what was its GI50?
> 100 µM (inactive)

Sample `S=c1[nH]c2ccc(Br)cc2c(=S)n1-c1ccccc1` — what was its GI50?
17.5 µM (inactive)

###

- Test system: SR
- test details: NCI tumour cell line growth inhibition, 48 h
Active and inactive are the calls of the source. Rule as the data show it: active = GI50 up to about 1.1 µM and inactive = higher.
Would you mind telling me the reported GI50 of each entry?

Sample COC(=O)C1Cc2c([nH]c3ccccc23)-c2[nH]c3ccccc3c2CC(NC(C)=O)C(=O)N2CCCC2C(=O)N1 (stereo unspecified) — what was its GI50?
> 100 µM (inactive)

Sample `CCCCCCCC(=O)N/N=C/c1ccc(Sc2nccn2C)c([N+](=O)[O-])c1` — what was its GI50?
18.8 µM (inactive)

Sample `CC1(C)O[C@@H](CBr)C[C@H](C[C@H]2C[C@@H](O)C[C@@H](CCOCc3ccccc3)O2)O1` — what was its GI50?
27.7 µM (inactive)

Sample `O=c1c2cc(I)ccc2nc(SCc2nnco2)n1Cc1ccccc1` — what was its GI50?
> 100 µM (inactive)

Sample `COc1ccc2[nH]c3c(O)nncc3c2c1` — what was its GI50?
> 100 µM (inactive)

Sample `Oc1ccccc1/C=N/Nc1nc(N/N=C/c2ccccc2O)nc(N/N=C/c2ccccc2O)n1` — what was its GI50?
> 100 µM (inactive)

Sample `O=C1c2ccccc2-c2cc3ccccc3c(=O)n21` — what was its GI50?
> 100 µM (inactive)

Sample `Cc1ccccc1NC(=O)CC(=O)n1nc(-c2ccccc2)c(/N=N/c2ccc([N+](=O)[O-])cc2)c1-c1ccccc1` — what was its GI50?
25.1 µM (inactive)

Sample COC1CCN(N(C)C)O1 (stereo unspecified) — what was its GI50?
> 100 µM (inactive)

Sample `NCCNCCCNC(=O)c1cc(-c2ccccc2)nc2ccccc12` — what was its GI50?
28.3 µM (inactive)

Sample CCCO/S(=N\S(=O)(=O)c1ccccc1)c1ccccc1[N+](=O)[O-] (stereo unspecified) — what was its GI50?
> 100 µM (inactive)

Sample `CCOC(=O)c1ccc(Nc2c3c(nc4ccccc24)CCCC3)cc1` — what was its GI50?
25.4 µM (inactive)

Sample CC(CCC(=O)O)C(=O)O (stereo unspecified) — what was its GI50?
> 100 µM (inactive)

Sample `C[C@]12Cc3cnc(-c4ccccc4)nc3C[C@@H]1CC[C@@H]1[C@@H]2CC[C@@]2(C)[C@H]1CC[C@]2(C)O` — what was its GI50?
6.59 µM (inactive)

Sample CC(C)C1(C)N=C(C(F)(F)F)c2cc(C(=O)C(F)(F)F)c3ccccc3c2N1 (stereo unspecified) — what was its GI50?
4.39 µM (inactive)

Sample `O=CCCn1[nH]c(=O)ccc1=O` — what was its GI50?
> 100 µM (inactive)

Sample CSc1ccc(NC(=O)C2c3[nH]c4ccccc4c3C3CCC(C(C)(C)C)CC3C2C(=O)O)cc1 (stereo unspecified) — what was its GI50?
11.5 µM (inactive)

Sample CC12CCC(/C(=N/c3cc(C(F)(F)F)cc(C(F)(F)F)c3)C1=O)C2(C)C (stereo unspecified) — what was its GI50?
18.8 µM (inactive)

Sample CCN1CCC(C)OP1(=O)Cc1ccccc1 (stereo unspecified) — what was its GI50?
> 100 µM (inactive)

Sample COC(=O)C12C3C4C1C1C2C3C41C(=O)NC(C)(C)CC(=O)O (stereo unspecified) — what was its GI50?
> 100 µM (inactive)

Sample CCC12CN(C(=O)OC)C3C(Br)C1CCC(=O)C32 (stereo unspecified) — what was its GI50?
> 100 µM (inactive)
